Hey, just so you know, these numbers are from ChEMBL document CHEMBL1126653.

System: Staphylococcus aureus
Experiment: Compound tested for the activity against Staphylococcus aureus strain ATCC 28953
Type: functional
Peptide text beside a SMILES is read from it.
The following compounds are shown together with reported MIC values.
A number alone suffices; assume µg/mL.

>>> measurement("CC(C)C[C@H](NC(=O)[C@H](CCCCN)NC(=O)[C@H](CC(C)C)NC(=O)[C@H](Cc1ccccc1)NC(=O)[C@H](CCCCN)NC(=O)[C@H](CCCCN)NC(=O)[C@H](C)NC(=O)[C@H](Cc1ccccc1)NC(=O)[C@H](CCCCN)NC(=O)[C@H](CCCCN)NC(=O)[C@H](Cc1ccccc1)NC(=O)[C@H](CC(C)C)NC(=O)[C@@H](N)CCCCN)C(=O)N[C@@H](Cc1ccccc1)C(=O)N[C@@H](CCCCN)C(=O)N[C@@H](C)C(=O)N[C@@H](Cc1c[nH]c2ccccc12)C(=O)O (H-KLFKKFAKKFLKLFKAW-OH)")
25

Name the recorded MIC for CC(C)C[C@H](NC(=O)[C@H](CCCCN)NC(=O)[C@H](CC(C)C)NC(=O)[C@H](Cc1c[nH]c2ccccc12)NC(=O)[C@H](CCCCN)NC(=O)[C@H](CCCCN)NC(=O)[C@H](C)NC(=O)[C@H](Cc1c[nH]c2ccccc12)NC(=O)[C@H](CCCCN)NC(=O)[C@H](CCCCN)NC(=O)[C@H](Cc1c[nH]c2ccccc12)NC(=O)[C@H](CC(C)C)NC(=O)[C@@H](N)CCCCN)C(=O)N[C@@H](Cc1c[nH]c2ccccc12)C(=O)N[C@@H](CCCCN)C(=O)N[C@@H](C)C(=O)N[C@@H](Cc1c[nH]c2ccccc12)C(=O)O (H-KLWKKWAKKWLKLWKAW-OH) . 25
